Data credit: paper PMC11358092

test system: E. coli MG1655; assay: High-throughput screening of FDA-approved drug library for antibiotic adjuvants (growth inhibition, OD600); format: cell-based, Escherichia coli; conditions: library drug alone, LB medium, 96-well, 8 h static culture at 37°C, relative to PMBN (positive) and DMSO (negative) controls, %, table head prints no unit
readout: Growth inhibition, Compound

Need Growth inhibition, Compound for each of these molecules.
1. CC(OC(=O)OC1CCCCC1)OC(=O)C1=C(CSc2nnnn2CCN(C)C)CS[C@@H]2[C@H](NC(=O)Cc3csc(N)n3)C(=O)N12.Cl.Cl (stereo partly drawn) [Cefotiam Hexetil Hydrochloride]
2. O=C(Nc1cc(Cl)cc(Cl)c1O)c1c(O)c(Cl)cc(Cl)c1Cl [Oxyclozanide]
3. O=C([O-])C1=C(CSc2nnnn2CS(=O)(=O)[O-])CS[C@@H]2[C@H](NC(=O)[C@H](O)c3ccccc3)C(=O)N12.[Na+].[Na+] [Cefonicid sodium]

1. 87%
2. 52%
3. 59%

----------
test system: E. coli MG1655; test: High-throughput screening of FDA-approved drug library for antibiotic adjuvants (growth inhibition, OD600); assay type: cell-based, Escherichia coli; details: library drug alone, LB medium, 96-well, 8 h static culture at 37°C, relative to PMBN (positive) and DMSO (negative) controls, %, table head prints no unit
Please use Criterion met whenever Growth inhibition, Compound is not below 90%, and Criterion not met whenever it is.

molecule	assigned.category
Oc1c(I)cc(Cl)c2cccnc12	Criterion met

Textbook exercise: given the entry CO[C@H]1/C=C/O[C@@]2(C)Oc3c(C)c(O)c4c(O)c(c(/C=N/N5CCN(C6CCCC6)CC5)c(O)c4c3C2=O)NC(=O)/C(C)=C\C=C\[C@H](C)[C@H](O)[C@@H](C)[C@@H](O)[C@@H](C)[C@H](OC(C)=O)[C@@H]1C , state whether its Growth inhibition, Compound is greater than or equal to 90%.
Criterion met

Input CCN1CCN(C(=O)N[C@@H](C(=O)N[C@@H]2C(=O)N3[C@@H]2SC(C)(C)[C@@H]3C(=O)O)c2ccccc2)C(=O)C1=O [piperacillin]
Criterion met

Input CC(=O)OC[C@H]1O[C@@H]([S-])[C@H](OC(C)=O)[C@@H](OC(C)=O)[C@@H]1OC(C)=O.CCP(CC)CC.[Au+]
Criterion not met

----------
Consider the following molecules; for each one, report its Growth inhibition, Compound.
system: E. coli MG1655; experiment: High-throughput screening of FDA-approved drug library for antibiotic adjuvants (growth inhibition, OD600); format: cell-based, Escherichia coli; details: library drug alone, LB medium, 96-well, 8 h static culture at 37°C, relative to PMBN (positive) and DMSO (negative) controls, %, table head prints no unit
Where a name gives a salt, the structure may show the parent alone.
One number for each entry, in %.

Recorded results for 10 molecules are shown here.
molecule	Growth inhibition, Compound, %
CC1(C)S[C@@H]2[C@H](NC(=O)C(C(=O)O)c3ccccc3)C(=O)N2[C@H]1C(=O)O (stereo partly shown) [Carbenicillin disodium]	89
NCC[C@H](O)C(=O)N[C@@H]1C[C@H](N)[C@@H](O[C@H]2O[C@H](CN)[C@@H](O)[C@H](O)[C@H]2O)[C@H](O)[C@H]1O[C@H]1O[C@H](CO)[C@@H](O)[C@H](N)[C@H]1O.O=S(=O)(O)O.O=S(=O)(O)O [Amikacin Sulfate Salt]	107
C[C@@H]1CN(c2c(F)c(F)c3c(=O)c(C(=O)O)cn(C4CC4)c3c2F)C[C@H](C)N1	113
Cc1cc(C2CCCCC2)n(O)c(=O)c1.NCCO	114
CO[C@H]1/C=C/O[C@@]2(C)Oc3c(C)c(O)c4c(O)c(c(/C=N/N5CCN(C)CC5)c(O)c4c3C2=O)NC(=O)/C(C)=C\C=C\[C@H](C)[C@H](O)[C@@H](C)[C@@H](O)[C@@H](C)[C@H](OC(C)=O)[C@@H]1C	101
Oc1ccc(Cl)c2cccnc12	85
O=c1[nH]c(=O)n([C@H]2C[C@H](O)[C@@H](CO)O2)cc1F	87
CCN1CCN(C(=O)N[C@@H](C(=O)N[C@@H]2C(=O)N3[C@@H]2SC(C)(C)[C@@H]3C(=O)O)c2ccccc2)C(=O)C1=O [Piperacillin sodium salt]	88
COC(=O)N/N=C/c1c[n+]([O-])c2ccccc2[n+]1[O-]	110
CCn1cc(C(=O)O)c(=O)c2cc3c(cc21)OCO3	108

Need Growth inhibition, Compound for each of these molecules.
1. CN[C@@H]1[C@H](O)[C@H](NC)[C@H]2O[C@@]3(O)C(=O)C[C@@H](C)O[C@H]3O[C@@H]2[C@H]1O.Cl.Cl.O.O.O.O.O
2. [H]/N=C(/N)N[C@H]1[C@H](O)[C@@H](O)[C@H](O[C@@H]2O[C@@H](C)[C@](O)(C=O)[C@H]2O[C@@H]2O[C@@H](CO)[C@H](O)[C@@H](O)[C@@H]2NC)[C@@H](N/C(N)=N\[H])[C@@H]1O [Streptomycin sulfate]
3. CS(=O)(=O)c1ccc([C@@H](O)[C@@H](CO)NC(=O)C(Cl)Cl)cc1

96
109
66
